system: CAL-72 (Osteosarcoma); experiment: Bliss excess, mean over the matrix (fraction); higher = more synergy
PROPERTY NAME: Bliss excess

>>> reported("CN(CCO)CC[C@H](CSc1ccccc1)Nc1ccc(S(=O)(=O)NC(=O)c2ccc(N3CCC([C@@H](O)c4ccccc4-c4ccc(Cl)cc4)CC3)cc2)cc1S(=O)(=O)C(F)(F)F [AZD4320] + Cn1cnc2c(F)c(Nc3ccc(Br)cc3Cl)c(C(=O)NOCCO)cc21 [Selumetinib] (first compound max 1 µM, 7x7, partner max 3 µM)")
-0.0089
>>> reported("NC1(C(=O)N[C@@H](CCO)c2ccc(Cl)cc2)CCN(c2ncnc3[nH]ccc23)CC1 [Capivasertib] + CCN(CCO)CCCOc1ccc2c(Nc3cc(CC(=O)Nc4cccc(F)c4)[nH]n3)ncnc2c1 [AZD2811] (first compound max 10 µM, 7x7, partner max 1 µM)")
0.002
>>> reported("NC1(C(=O)N[C@@H](CCO)c2ccc(Cl)cc2)CCN(c2ncnc3[nH]ccc23)CC1 [Capivasertib] + CC(C)n1c(=O)n(C)c2cnc3cc(F)c(-c4ccc(OCCCN5CCCCC5)nc4)cc3c21 [AZD1390] (first compound max 10 µM, 7x7, partner max 0.3 µM)")
-0.133

----------
Documented combination Emax across a set of compounds
test system: ESS-1 (Other Solid Carcinomas); test: combination Emax (second highest fraction inhibited in the dose matrix, 72 h); higher = more inhibition; extreme values may be limits of the assay
PROPERTY NAME: combination Emax

>>> reported("Cn1cnc2c(F)c(Nc3ccc(Br)cc3Cl)c(C(=O)NOCCO)cc21 [Selumetinib] + CC(C)n1c(=O)n(C)c2cnc3cc(F)c(-c4ccc(OCCCN5CCCCC5)nc4)cc3c21 [AZD1390] (first compound max 10 µM, 7x7, partner max 0.3 µM)")
0.246
>>> reported("NC1(C(=O)N[C@@H](CCO)c2ccc(Cl)cc2)CCN(c2ncnc3[nH]ccc23)CC1 [Capivasertib] + COc1nnc2ccc(N3CCC(c4ccc(OCCN5CCN(C)C(=O)[C@H]5C)cc4)CC3)nn12 [AZD5153] (first compound max 10 µM, 7x7, partner max 1 µM)")
0.738
>>> reported("Cn1cnc2c(F)c(Nc3ccc(Br)cc3Cl)c(C(=O)NOCCO)cc21 [Selumetinib] + C=CCn1c(=O)c2cnc(Nc3ccc(N4CCN(C)CC4)cc3)nc2n1-c1cccc(C(C)(C)O)n1 [AZD1775] (first compound max 10 µM, partner max 1 µM)")
0.936
>>> reported("COc1cccc(OCCCN)c1-c1cc(Nc2cnc(C#N)cn2)n[nH]1 [Prexasertib] + C[C@@H]1COCCN1C2=NC(=NC(=C2)C3(CC3)[S@](=N)(=O)C)C4=C5C=CNC5=NC=C4 [AZD6738] (first compound max 1 µM, 7x7, partner max 10 µM)")
1

----------
tested on: A673 (Ewing's Sarcoma); experiment: Bliss excess, mean over the matrix (fraction); higher = more synergy
PROPERTY NAME: Bliss excess

>>> reported("COc1cccc(OCCCN)c1-c1cc(Nc2cnc(C#N)cn2)n[nH]1 [Prexasertib] + CN(C)CCCOc1ccc(-c2ccc3ncc4c(c3c2)n(C2CCOCC2)c(=O)n4C)cn1 [AZD0156] (first compound max 1 µM, 7x7, partner max 1 µM)")
0.0133
>>> reported("Cn1cnc2c(F)c(Nc3ccc(Br)cc3Cl)c(C(=O)NOCCO)cc21 [Selumetinib] + CCN(CCO)CCCOc1ccc2c(Nc3cc(CC(=O)Nc4cccc(F)c4)[nH]n3)ncnc2c1 [AZD2811] (first compound max 10 µM, 7x7, partner max 1 µM)")
-0.0233
>>> reported("N#Cc1cnc(Nc2cc(NC[C@H]3CNCCO3)c(C(F)(F)F)cn2)cn1 [SRA737] + C=CCn1c(=O)c2cnc(Nc3ccc(N4CCN(C)CC4)cc3)nc2n1-c1cccc(C(C)(C)O)n1 [AZD1775] (first compound max 10 µM, partner max 1 µM)")
0.0914
>>> reported("O=C(c1cc(Cc2n[nH]c(=O)c3ccccc23)ccc1F)N1CCN(C(=O)C2CC2)CC1 [Olaparib] + Cc1c2c(nn1C)CSCc1cc(n(C)n1)CSc1cc(c3ccccc3c1)OCCCc1c(C(=O)O)n(C)c3c-2c(Cl)ccc13 [AZD5991] (first compound max 10 µM, 7x7, partner max 1 µM)")
-0.0566
